B1: Proto-oncogene vav, residues 782 to 842; numbered along this chain, P15498 (parent)
chain: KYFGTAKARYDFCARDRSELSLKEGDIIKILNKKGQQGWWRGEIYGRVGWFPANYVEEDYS

- Variants of: B1
- Experiment: abundance fitness (aPCA) (normalised: wild type 0, dead -1); higher = more abundant; growth selection in yeast, the domain comes from the species named
- Condition: Homo sapiens
Rule: abundance fitness of -0.3 or more gives Fulfilled; anything lower gives Not fulfilled.

{"Mutation annotation": "L31Q", "Category label": "Not fulfilled"}
{"Mutation annotation": "A53W", "Category label": "Not fulfilled"}
{"Mutation annotation": "Y60M", "Category label": "Fulfilled"}
{"Mutation annotation": "A6M", "Category label": "Not fulfilled"}
{"Mutation annotation": "R9F", "Category label": "Fulfilled"}
{"Mutation annotation": "W39T", "Category label": "Not fulfilled"}
{"Mutation annotation": "N54F", "Category label": "Not fulfilled"}
{"Mutation annotation": "D26H", "Category label": "Not fulfilled"}
{"Mutation annotation": "I27E", "Category label": "Fulfilled"}
{"Mutation annotation": "E58N", "Category label": "Not fulfilled"}
{"Mutation annotation": "K34D", "Category label": "Fulfilled"}
{"Mutation annotation": "A53Y", "Category label": "Not fulfilled"}
{"Mutation annotation": "S18R", "Category label": "Fulfilled"}
{"Mutation annotation": "I27D", "Category label": "Fulfilled"}
{"Mutation annotation": "R15M", "Category label": "Not fulfilled"}
{"Mutation annotation": "P52T", "Category label": "Not fulfilled"}
{"Mutation annotation": "G42Q", "Category label": "Not fulfilled"}
{"Mutation annotation": "G38T", "Category label": "Not fulfilled"}
{"Mutation annotation": "I28V", "Category label": "Fulfilled"}
{"Mutation annotation": "G4M", "Category label": "Fulfilled"}
{"Mutation annotation": "I30E", "Category label": "Not fulfilled"}
{"Mutation annotation": "Q37G", "Category label": "Fulfilled"}
{"Mutation annotation": "K1G", "Category label": "Fulfilled"}
{"Mutation annotation": "S61G", "Category label": "Fulfilled"}
{"Mutation annotation": "F12W", "Category label": "Fulfilled"}
{"Mutation annotation": "K23H", "Category label": "Fulfilled"}
{"Mutation annotation": "T5M", "Category label": "Fulfilled"}
{"Mutation annotation": "E57L", "Category label": "Fulfilled"}
{"Mutation annotation": "I27L", "Category label": "Fulfilled"}
{"Mutation annotation": "C13T", "Category label": "Fulfilled"}
{"Mutation annotation": "R9M", "Category label": "Fulfilled"}
{"Mutation annotation": "K1L", "Category label": "Fulfilled"}
{"Mutation annotation": "F51M", "Category label": "Not fulfilled"}
{"Mutation annotation": "V56K", "Category label": "Not fulfilled"}
{"Mutation annotation": "V56F", "Category label": "Not fulfilled"}
{"Mutation annotation": "Y55Q", "Category label": "Not fulfilled"}
{"Mutation annotation": "F3S", "Category label": "Fulfilled"}
{"Mutation annotation": "S61H", "Category label": "Fulfilled"}
{"Mutation annotation": "G42D", "Category label": "Not fulfilled"}
{"Mutation annotation": "D11L", "Category label": "Not fulfilled"}
{"Mutation annotation": "Y10E", "Category label": "Fulfilled"}
{"Mutation annotation": "F12N", "Category label": "Not fulfilled"}
{"Mutation annotation": "Y60G", "Category label": "Fulfilled"}
{"Mutation annotation": "N32S", "Category label": "Fulfilled"}
{"Mutation annotation": "V56Q", "Category label": "Not fulfilled"}
{"Mutation annotation": "W39H", "Category label": "Not fulfilled"}
{"Mutation annotation": "K7D", "Category label": "Not fulfilled"}
{"Mutation annotation": "G4T", "Category label": "Fulfilled"}
{"Mutation annotation": "Y55F", "Category label": "Fulfilled"}
{"Mutation annotation": "K29Y", "Category label": "Fulfilled"}
{"Mutation annotation": "R9W", "Category label": "Not fulfilled"}
{"Mutation annotation": "K23M", "Category label": "Fulfilled"}
{"Mutation annotation": "E57D", "Category label": "Fulfilled"}
{"Mutation annotation": "V56L", "Category label": "Not fulfilled"}
{"Mutation annotation": "Q36P", "Category label": "Fulfilled"}
{"Mutation annotation": "A53H", "Category label": "Fulfilled"}
{"Mutation annotation": "W50R", "Category label": "Not fulfilled"}
{"Mutation annotation": "S18Q", "Category label": "Not fulfilled"}
{"Mutation annotation": "E24V", "Category label": "Fulfilled"}
{"Mutation annotation": "Y60F", "Category label": "Fulfilled"}
{"Mutation annotation": "V48P", "Category label": "Not fulfilled"}
{"Mutation annotation": "A53D", "Category label": "Not fulfilled"}
{"Mutation annotation": "Q37D", "Category label": "Fulfilled"}
{"Mutation annotation": "K29P", "Category label": "Not fulfilled"}
{"Mutation annotation": "W40A", "Category label": "Not fulfilled"}
{"Mutation annotation": "R9P", "Category label": "Not fulfilled"}
{"Mutation annotation": "I28L", "Category label": "Not fulfilled"}
{"Mutation annotation": "K29S", "Category label": "Fulfilled"}
{"Mutation annotation": "I44V", "Category label": "Fulfilled"}
{"Mutation annotation": "E19H", "Category label": "Fulfilled"}
{"Mutation annotation": "G46D", "Category label": "Fulfilled"}
{"Mutation annotation": "C13N", "Category label": "Fulfilled"}
{"Mutation annotation": "Y45P", "Category label": "Fulfilled"}
{"Mutation annotation": "F51C", "Category label": "Not fulfilled"}
{"Mutation annotation": "E24F", "Category label": "Not fulfilled"}
{"Mutation annotation": "A6I", "Category label": "Not fulfilled"}
{"Mutation annotation": "E57F", "Category label": "Fulfilled"}
{"Mutation annotation": "I28D", "Category label": "Not fulfilled"}
{"Mutation annotation": "D26I", "Category label": "Not fulfilled"}
{"Mutation annotation": "V48M", "Category label": "Not fulfilled"}
{"Mutation annotation": "K34Y", "Category label": "Fulfilled"}
{"Mutation annotation": "G25A", "Category label": "Not fulfilled"}
{"Mutation annotation": "K7M", "Category label": "Fulfilled"}
{"Mutation annotation": "A6N", "Category label": "Not fulfilled"}
{"Mutation annotation": "K23A", "Category label": "Fulfilled"}
{"Mutation annotation": "Y55G", "Category label": "Not fulfilled"}
{"Mutation annotation": "E19G", "Category label": "Not fulfilled"}
{"Mutation annotation": "S18M", "Category label": "Fulfilled"}
{"Mutation annotation": "R9G", "Category label": "Not fulfilled"}
